# key: entry, value: SI (IC50 (HDF) / IC50 (melanoma cells)) A375 No CoCl2
test system: A375; assay: Photocytotoxicity, MTT assay; assay type: cell-based, human; conditions: red light 643 nm 30 min, normoxia
Metric: SI (IC50 (HDF) / IC50 (melanoma cells)) A375 No CoCl2

>>> number("CCCCCCCCCC(=O)Nc1ccc(-c2c3nc(c(-c4ccc[n+]([O-])c4)c4ccc([nH]4)c(-c4ccc[n+]([O-])c4)c4nc(c(-c5ccc[n+]([O-])c5)c5ccc2[nH]5)C=C4)C=C3)cc1")
0.9
>>> number("CCCCCCCCCCCCCC(=O)Nc1ccc(-c2c3nc(c(-c4ccc[n+](C)c4)c4ccc([nH]4)c(-c4ccc[n+](C)c4)c4nc(c(-c5ccc[n+](C)c5)c5ccc2[nH]5)C=C4)C=C3)cc1")
5.4
>>> number("CCCCCCCCCCCCCCCCCC(=O)Nc1ccc(-c2c3nc(c(-c4ccc[n+](C)c4)c4ccc([nH]4)c(-c4ccc[n+](C)c4)c4nc(c(-c5ccc[n+](C)c5)c5ccc2[nH]5)C=C4)C=C3)cc1.[Cl-].[Cl-].[Cl-]")
2.2

----------
experiment: UV-Vis absorption spectra in MeOH; type: physicochemical
# key: entry, value: ε Qx (0-0)
Metric: ε Qx (0-0)

>>> result("CCCCCCCCCCCCCC(=O)Nc1ccc(-c2c3nc(c(-c4ccc[n+]([O-])c4)c4ccc([nH]4)c(-c4ccc[n+]([O-])c4)c4nc(c(-c5ccc[n+]([O-])c5)c5ccc2[nH]5)C=C4)C=C3)cc1")
"2000 M⁻¹ cm⁻¹"
>>> result("CCCCCCCCCCCCCCCCCC(=O)Nc1ccc(-c2c3nc(c(-c4ccc[n+]([O-])c4)c4ccc([nH]4)c(-c4ccc[n+]([O-])c4)c4nc(c(-c5ccc[n+]([O-])c5)c5ccc2[nH]5)C=C4)C=C3)cc1")
"1600 M⁻¹ cm⁻¹"
>>> result("CC(=O)Nc1ccc(-c2c3nc(c(-c4ccc[n+]([O-])c4)c4ccc([nH]4)c(-c4ccc[n+]([O-])c4)c4nc(c(-c5ccc[n+]([O-])c5)c5ccc2[nH]5)C=C4)C=C3)cc1")
"1900 M⁻¹ cm⁻¹"
>>> result("CCCCCCCCCC(=O)Nc1ccc(-c2c3nc(c(-c4ccc[n+]([O-])c4)c4ccc([nH]4)c(-c4ccc[n+]([O-])c4)c4nc(c(-c5ccc[n+]([O-])c5)c5ccc2[nH]5)C=C4)C=C3)cc1")
"1500 M⁻¹ cm⁻¹"

----------
# key: entry, value: ε Qy (0-0)
experiment: UV-Vis absorption spectra in MeOH; type: physicochemical
Metric: ε Qy (0-0) (M⁻¹ cm⁻¹)

>>> number("CCCCCCCCCCCCCC(=O)Nc1ccc(-c2c3nc(c(-c4ccc[n+]([O-])c4)c4ccc([nH]4)c(-c4ccc[n+]([O-])c4)c4nc(c(-c5ccc[n+]([O-])c5)c5ccc2[nH]5)C=C4)C=C3)cc1 [TOPyP3-C13H27]")
5800
>>> number("CC(=O)Nc1ccc(-c2c3nc(c(-c4ccc[n+]([O-])c4)c4ccc([nH]4)c(-c4ccc[n+]([O-])c4)c4nc(c(-c5ccc[n+]([O-])c5)c5ccc2[nH]5)C=C4)C=C3)cc1 [TOPyP3-CH3]")
5200
>>> number("CCCCCCCCCCCCCCCCCC(=O)Nc1ccc(-c2c3nc(c(-c4ccc[n+]([O-])c4)c4ccc([nH]4)c(-c4ccc[n+]([O-])c4)c4nc(c(-c5ccc[n+]([O-])c5)c5ccc2[nH]5)C=C4)C=C3)cc1 [TOPyP3-C17H35]")
4300
>>> number("CCCCCCCCCC(=O)Nc1ccc(-c2c3nc(c(-c4ccc[n+]([O-])c4)c4ccc([nH]4)c(-c4ccc[n+]([O-])c4)c4nc(c(-c5ccc[n+]([O-])c5)c5ccc2[nH]5)C=C4)C=C3)cc1 [TOPyP3-C9H19]")
5100
